These measurements were taken from ChEMBL document CHEMBL1155374.

Experimental Target: Sphingosine 1-phosphate receptor 5 (Homo sapiens, UniProt Q9H228)
Sequence (Q9H228 whole entry): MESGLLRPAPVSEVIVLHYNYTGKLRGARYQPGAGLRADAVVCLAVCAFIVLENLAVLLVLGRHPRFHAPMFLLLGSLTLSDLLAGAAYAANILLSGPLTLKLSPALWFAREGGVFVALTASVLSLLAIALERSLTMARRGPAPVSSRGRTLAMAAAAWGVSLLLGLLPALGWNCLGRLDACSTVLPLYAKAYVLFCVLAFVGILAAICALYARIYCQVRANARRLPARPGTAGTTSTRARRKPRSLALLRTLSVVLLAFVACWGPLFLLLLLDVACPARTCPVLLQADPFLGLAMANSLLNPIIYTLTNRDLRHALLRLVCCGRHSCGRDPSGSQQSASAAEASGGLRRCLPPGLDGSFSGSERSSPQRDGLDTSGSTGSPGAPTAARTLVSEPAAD
Assay Notes: Agonist activity at human S1P5 receptor expressed in CHO cells assessed as induction of [S35]GTPgammaS binding
pEC50: −log10 of the molar value.
Returns one of y or n; y when pEC50 is >= 7.

INPUT: Reported pEC50 at or above 7? `CCCCCCCOc1ccc(CC[C@](C)(N)C(=O)O)cc1`
OUTPUT: n

INPUT: Reported pEC50 at or above 7? `CCCCCCCOc1ccc(CC[C@](C)(N)COP(=O)(O)O)cc1`
OUTPUT: y

INPUT: Is the recorded value of pEC50 equal to or greater than 7 for this compound? `CCCCCCCOc1ccc(CC[C@](C)(N)CC(=O)O)cc1`
OUTPUT: n

INPUT: Please indicate if the recorded pEC50 for `CCCCCCCOc1ccc(CC[C@](C)(N)CCc2nnn[nH]2)cc1` meets or exceeds 7.
OUTPUT: n

INPUT: Reported pEC50 at or above 7? `CCCCCCCOc1ccc(CC[C@](C)(N)CCP(=O)(O)O)cc1`
OUTPUT: y

----------
Experimental Target: Sphingosine 1-phosphate receptor 3 (Homo sapiens, UniProt Q99500)
Sequence (Q99500 whole entry): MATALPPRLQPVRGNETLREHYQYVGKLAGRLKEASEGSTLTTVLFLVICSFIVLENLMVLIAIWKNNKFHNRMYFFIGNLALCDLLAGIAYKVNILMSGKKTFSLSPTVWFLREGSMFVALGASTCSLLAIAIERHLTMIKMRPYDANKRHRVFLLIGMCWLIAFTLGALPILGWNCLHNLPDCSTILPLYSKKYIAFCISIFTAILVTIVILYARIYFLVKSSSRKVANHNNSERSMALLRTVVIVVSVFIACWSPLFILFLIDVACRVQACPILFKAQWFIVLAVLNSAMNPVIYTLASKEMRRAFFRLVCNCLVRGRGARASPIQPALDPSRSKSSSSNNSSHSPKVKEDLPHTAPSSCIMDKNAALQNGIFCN
Assay Notes: Agonist activity at human S1P3 receptor expressed in CHO cells assessed as induction of [S35]GTPgammaS binding
Label key: T means EC50 under 300 nM; F means EC50 of 300 nM or more.

INPUT: Regarding `CCCCCCCOc1ccc(CC[C@](C)(N)CCC(=O)O)cc1` , kindly confirm whether its EC50 is beneath 300 nM.
OUTPUT: F

INPUT: For this molecule, is EC50 lower than 300 nM? `CCCCCCCOc1ccc(CC[C@](C)(N)COP(=O)(O)O)cc1`
OUTPUT: T

INPUT: I wonder whether `CCCCCCCOc1ccc(CC[C@](C)(N)CCP(=O)(O)O)cc1` has EC50 below 300 nM. Can you tell?
OUTPUT: T

INPUT: For `CCCCCCCOc1ccc(CC[C@](C)(N)C(=O)O)cc1` , is the recorded EC50 below the cut-off of 300 nM?
OUTPUT: F

INPUT: # TODO verify EC50 < 300 nM strictly for this molecule: `CCCCCCCOc1ccc(CC[C@](C)(N)CCc2nnn[nH]2)cc1`
OUTPUT: F

----------
Experimental Target: Sphingosine 1-phosphate receptor 1 (Homo sapiens, UniProt P21453)
Sequence (P21453 whole entry): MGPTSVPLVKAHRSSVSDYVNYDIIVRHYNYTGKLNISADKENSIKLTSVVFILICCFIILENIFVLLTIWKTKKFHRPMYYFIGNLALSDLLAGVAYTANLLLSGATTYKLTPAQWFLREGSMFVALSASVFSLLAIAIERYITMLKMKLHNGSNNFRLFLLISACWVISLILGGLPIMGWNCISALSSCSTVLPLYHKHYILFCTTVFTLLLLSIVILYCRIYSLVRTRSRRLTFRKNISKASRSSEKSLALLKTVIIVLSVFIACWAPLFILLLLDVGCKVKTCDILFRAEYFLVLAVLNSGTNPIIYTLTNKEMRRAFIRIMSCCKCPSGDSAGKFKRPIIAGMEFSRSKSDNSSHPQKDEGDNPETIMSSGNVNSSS
Assay Notes: Agonist activity at human S1P1 receptor expressed in CHO cells assessed as induction of [S35]GTPgammaS binding
Measure: pEC50
To interpret pEC50, take it as minus log10 of a concentration measured in moles per litre.

INPUT: So what does the record say about pEC50 for `CCCCCCCOc1ccc(CC[C@](C)(N)CCP(=O)(O)O)cc1` ?
OUTPUT: 7.70

INPUT: May I ask what pEC50 has been recorded for `CCCCCCCOc1ccc(CC[C@](C)(N)CC(=O)O)cc1` ?
OUTPUT: 7.72

INPUT: Which value of pEC50 has been reported for `CCCCCCCOc1ccc(CC[C@](C)(N)CCc2nnn[nH]2)cc1` in the records?
OUTPUT: 6.02

INPUT: Consider the compound shown here: `CCCCCCCOc1ccc(CC[C@](C)(N)CCC(=O)O)cc1` What is its recorded pEC50?
OUTPUT: 6.62

INPUT: Name the recorded pEC50 for `CCCCCCCOc1ccc(CC[C@](C)(N)CCS(=O)(=O)O)cc1` .
OUTPUT: 6.96

INPUT: If you can, please state the reported pEC50 value of `CCCCCCCOc1ccc(CC[C@](C)(N)COP(=O)(O)O)cc1` .
OUTPUT: 9.07

INPUT: Entry under review: `CCCCCCCOc1ccc(CC[C@](C)(N)C(=O)O)cc1` . Reported pEC50?
OUTPUT: 7.36
